Tested on: Duck hepatitis B virus
experimental-details: Antiviral activity against duck HBV in primary duck hepatocytes
Format: functional, organism-based
condition-set: Hepatocyte
measurement-name: EC50

Worked set:
{"compound-string": "O=c1cnn(COC(CO)CO)c(=O)[nH]1", "EC50": "> 46 µM"}
{"compound-string": "O=c1[nH]c(=O)n(COC(CO)CO)cc1CCO", "EC50": "> 38.4 µM"}
{"compound-string": "Cc1c(Br)c(=O)[nH]c(=O)n1COC(CO)CO", "EC50": "16.2 µM"}
{"compound-string": "O=c1[nH]c(=O)n(COC(CO)CO)cc1[N+](=O)[O-]", "EC50": "> 38.3 µM"}
{"compound-string": "Cc1c(I)c(=O)[nH]c(=O)n1COC(CO)CO", "EC50": "> 28 µM"}

Tell me the measured EC50 of `O=c1[nH]c(=O)n(COC(CO)CO)cc1Br` , please. > 33.8 µM

Tell me the measured EC50 of `Cc1nn(COC(CO)CO)c(=S)[nH]c1=O` , please. > 40.4 µM

Tell me the measured EC50 of `O=c1[nH]c(=O)n(COC(CO)CO)cc1Cl` , please. 4 µM

Tell me the measured EC50 of `Cc1cn(COC(CO)CO)c(=O)[nH]c1=O` , please. > 43.4 µM
